// EC50 [µM], FXa generation assay lookup, one value per entry
Target: human Factor IXa (human, UniProt P00740 47-191; P00740 227-461)
Assay: cell-based or functional assay
Ends that are not written are not given here.

{"BINDER": "RHSNHNLTCQASYCWLLPAGLQ", "EC50 [µM], FXa generation assay": "> 1 µM"}
{"BINDER": "AVDSLPLYGARSAPSKLTCLASYCWLFWTGIA (not fully specified; cysteine pairing not given here) [AVDSLPLYGA RSAPS KLTCLASYCWLFWTGIA]", "EC50 [µM], FXa generation assay": "< 0.5 µM"}
{"BINDER": "CGGGRRAPGKLTDLASYKWLFWTGIA [CGGG-RRAPGKLT-Asp-LASY-Lys-WLFWTGIA]", "EC50 [µM], FXa generation assay": "< 0.5 µM"}
